- Tested on: oilseed rape (Brassica napus)
- Experiment Notes: Test D pre-/postemergence: oilseed rape
- Format: in vivo
- Run Parameters: Postemergence, 125 g ai/ha; scale 0 to 100, 0 no effect, 100 complete control
Recorded Metric: Plant response rating: Oilseed Rape
API note: the answer field is a bare number with no unit suffix.

[
  {
    "Molecule": "CCc1nn(-c2ccc(C(F)(F)F)cc2)nc1Cc1ccnc(C(F)(F)F)c1 [Compound 155]",
    "Reported Measurement": 100
  }
]

IN: For the molecule COc1nn(-c2ccc(C(F)(F)F)cc2)nc1Cc1ccnc(C(F)F)c1 [Compound 138] , give its measured Plant response rating: Oilseed Rape value.
OUT: 100

IN: For the molecule Cc1nn(-c2ccc(C(F)(F)F)cn2)nc1Cc1cccc(C(F)(F)F)c1 [Compound 106] , give its measured Plant response rating: Oilseed Rape value.
OUT: 80

IN: For the molecule Cc1nn(-c2ccc(C(F)(F)F)cn2)nc1Oc1ccnc(C(F)(F)F)c1 [Compound 23] , give its measured Plant response rating: Oilseed Rape value.
OUT: 85

---

Listed compounds paired with reported Plant response rating, Crabgrass, Large
- System: large crabgrass (Digitaria sanguinalis)
- Experiment Notes: Test C pre-/postemergence: large crabgrass
- Format: in vivo
- Run Parameters: Postemergence, 62 g ai/ha; scale 0 to 100 (0 no effect, 100 complete control)
API note: the answer field is a bare number with no unit suffix.

[
  {
    "Compound": "CCCc1nn(-c2ccc(C(F)(F)F)cc2)nc1Oc1ccnc(C(F)(F)F)c1 [Compound 170]",
    "Reported Measurement": 30
  }
]

IN: For the compound CCCc1nn(-c2ccc(F)cc2F)nc1Oc1ccnc(C(F)(F)F)c1 [Compound 179] , give its measured Plant response rating, Crabgrass, Large value.
OUT: 20

IN: For the compound FC(F)Oc1nn(-c2ccc(C(F)(F)F)cc2)nc1Cc1ccnc(C(F)(F)F)c1 [Compound 26] , give its measured Plant response rating, Crabgrass, Large value.
OUT: 30

IN: For the compound CCc1nn(-c2ccc(C(F)(F)F)c(F)c2)nc1Oc1ccnc(C(F)(F)F)c1 [Compound 183] , give its measured Plant response rating, Crabgrass, Large value.
OUT: 35

---

- System: Barnyardgrass
- Experiment Notes: Test C postemergence: barnyardgrass
- Type: in vivo, Echinochloa crus-galli
- Run Parameters: 62 g ai/ha, scale 0 to 100 (0 no effect, 100 complete control)
Listed compounds paired with reported Plant response rating, Barnyardgrass
API note: the answer field is a bare number with no unit suffix.

[
  {
    "Compound": "CCc1nn(-c2ccc(F)c(F)c2)nc1Oc1ccnc(C(F)(F)F)c1 [Compound 171]",
    "Plant response rating, Barnyardgrass": 15
  },
  {
    "Compound": "FCc1nn(-c2ccc(F)cc2)nc1Oc1ccnc(C(F)(F)F)c1 [Compound 160]",
    "Plant response rating, Barnyardgrass": 30
  },
  {
    "Compound": "CCCc1nn(-c2ccc(F)cc2F)nc1Oc1ccnc(C(F)(F)F)c1 [Compound 179]",
    "Plant response rating, Barnyardgrass": 45
  }
]

IN: For the compound CCc1nn(-c2ccc(C(F)(F)F)cc2)nc1Cc1ccnc(C(F)(F)F)c1 [Compound 155] , give its measured Plant response rating, Barnyardgrass value.
OUT: 35

---

- System: winter wheat (Triticum aestivum)
- Experiment Notes: Test C pre-/postemergence: winter wheat
- Format: in vivo
- Run Parameters: Preemergence, 125 g ai/ha; scale 0 to 100, 0 no effect, 100 complete control
Recorded Metric: Plant response rating, Wheat
API note: the answer field is a bare number with no unit suffix.

Look over these answered cases.
[
  {
    "Molecule": "CCOc1nn(-c2ccc(C(F)(F)F)cc2)nc1Cc1ccnc(C(F)(F)F)c1",
    "Plant response rating, Wheat": 0
  },
  {
    "Molecule": "FC(F)Oc1nn(-c2ccc(C(F)(F)F)cc2)nc1Cc1ccnc(C(F)(F)F)c1",
    "Plant response rating, Wheat": 30
  },
  {
    "Molecule": "Cc1nn(-c2ccc(C(F)(F)F)cn2)nc1Cc1cccc(C(F)(F)F)c1",
    "Plant response rating, Wheat": 0
  },
  {
    "Molecule": "CCCc1nn(-c2ccc(F)cc2F)nc1Oc1ccnc(C(F)(F)F)c1",
    "Plant response rating, Wheat": 50
  },
  {
    "Molecule": "CCCc1nn(-c2ccc(C(F)(F)F)cc2)nc1Oc1ccnc(C(F)(F)F)c1",
    "Plant response rating, Wheat": 60
  }
]

The record that follows has no Plant response rating, Wheat shown yet.
IN: For the molecule Cc1nn(-c2ccc(C(F)(F)F)cc2)nc1Oc1ccnc(C(F)(F)F)c1 , give its measured Plant response rating, Wheat value.
OUT: 40

---

Listed compounds paired with reported Plant response rating, Foxtail, Giant
- Test system: foxtail, giant (giant foxtail, Setaria faberii)
- Experiment Notes: Test A pre-/postemergence: foxtail, giant
- Assay type: in vivo
- Run Parameters: Postemergence, 125 g ai/ha; 0 to 100 scale, 0 is no effect, 100 is complete control

[
  {
    "Molecule": "CCOc1nn(-c2ccc(F)cc2F)nc1Cc1ccnc(C(F)(F)F)c1",
    "Plant response rating, Foxtail, Giant": 100
  }
]

IN: For the compound CCCc1nn(-c2ccc(F)cc2F)nc1Oc1ccnc(C(F)(F)F)c1 , give its measured Plant response rating, Foxtail, Giant value.
OUT: 90

IN: For the compound CCOc1nn(-c2ccc(F)cc2)nc1C(=O)c1ccnc(C(F)(F)F)c1 , give its measured Plant response rating, Foxtail, Giant value.
OUT: 20

IN: For the compound CCCc1nn(-c2ccc(F)c(F)c2)nc1Oc1ccnc(C(F)(F)F)c1 , give its measured Plant response rating, Foxtail, Giant value.
OUT: 90

IN: For the compound CCc1nn(-c2ccc(C(F)(F)F)cc2)nc1Oc1ccnc(C(F)(F)F)c1 , give its measured Plant response rating, Foxtail, Giant value.
OUT: 80

IN: For the compound CCCc1nn(-c2ccc(C(F)(F)F)cc2)nc1Oc1ccnc(C(F)(F)F)c1 , give its measured Plant response rating, Foxtail, Giant value.
OUT: 90

IN: For the compound CCOc1nn(-c2ccc(Cl)cc2)nc1Cc1ccnc(C(F)(F)F)c1 , give its measured Plant response rating, Foxtail, Giant value.
OUT: 90

---

- Tested on: barley (winter barley, Hordeum vulgare)
- Experiment Notes: Test C postemergence: barley
- Assay type: in vivo
- Run Parameters: 62 g ai/ha, scale 0 to 100 (0 no effect, 100 complete control)
- Excerpt: […] Treated plants and controls were maintained in a greenhouse for 13 to 15 days, after which time all species were compared to controls and visually evaluated. […]
Recorded Metric: Plant response rating, Barley
API note: the answer field is a bare number with no unit suffix.

Look over these answered cases.
[
  {
    "Molecule": "CCOc1nn(-c2ccc(F)cc2)nc1Cc1ccnc(C(F)(F)F)c1",
    "Plant response rating, Barley": 40
  },
  {
    "Molecule": "FC(F)Oc1nn(-c2ccc(C(F)(F)F)cc2)nc1Cc1ccnc(C(F)(F)F)c1",
    "Plant response rating, Barley": 30
  },
  {
    "Molecule": "Cc1nn(-c2ccc(C(F)(F)F)cn2)nc1Cc1cccc(C(F)(F)F)c1",
    "Plant response rating, Barley": 25
  }
]

IN: For the compound FC(F)(F)c1ccc(-n2nc(Cl)c(Cc3ccnc(C(F)(F)F)c3)n2)cc1 , give its measured Plant response rating, Barley value.
OUT: 15

---

- System: nutsedge, yellow (yellow nutsedge, Cyperus esculentus)
- Experiment Notes: Test C pre-/postemergence: nutsedge, yellow
- Type: in vivo
- Run Parameters: Postemergence, 250 g ai/ha; scale 0 to 100
Recorded Metric: Plant response rating, Nutsedge, Yellow

Look over these answered cases.
[
  {
    "Compound": "CCc1nn(-c2ccc(C(F)(F)F)cc2)nc1Cc1ccnc(C(F)(F)F)c1 [Compound 155]",
    "Tested System": "nutsedge, yellow (yellow nutsedge, Cyperus esculentus)",
    "Plant response rating, Nutsedge, Yellow": 20
  },
  {
    "Compound": "CCc1nn(-c2ccc(F)cc2)nc1Cc1ccnc(C(F)(F)F)c1 [Compound 154]",
    "Tested System": "nutsedge, yellow (yellow nutsedge, Cyperus esculentus)",
    "Plant response rating, Nutsedge, Yellow": 15
  },
  {
    "Compound": "Cc1nn(-c2ccc(F)c(C(F)(F)F)c2)nc1Cc1ccnc(C(F)(F)F)c1 [Compound 156]",
    "Tested System": "nutsedge, yellow (yellow nutsedge, Cyperus esculentus)",
    "Plant response rating, Nutsedge, Yellow": 10
  },
  {
    "Compound": "Cc1nn(-c2ccnc(Cl)c2)nc1Cc1ccnc(C(F)(F)F)c1 [Compound 141]",
    "Tested System": "nutsedge, yellow (yellow nutsedge, Cyperus esculentus)",
    "Plant response rating, Nutsedge, Yellow": 15
  },
  {
    "Compound": "FC(F)(F)c1ccc(-n2nc(Cl)c(Cc3ccnc(C(F)(F)F)c3)n2)cc1 [Compound 28]",
    "Tested System": "nutsedge, yellow (yellow nutsedge, Cyperus esculentus)",
    "Plant response rating, Nutsedge, Yellow": 25
  }
]

The record that follows has no Plant response rating, Nutsedge, Yellow shown yet.
IN: For the compound Fc1ccc(-n2nc(Cc3ccnc(C(F)(F)F)c3)c(OC(F)F)n2)cc1 [Compound 25] , give its measured Plant response rating, Nutsedge, Yellow value.
OUT: 10

Data provenance is patent US9302999B2.
